Injury Rice values by entry
System: rice
test_description: Treatment of soil under submerged condition, pre-emergence (Test 4), injury
Assay type: in vivo
condition: 30 g ai/a granule, 30 days later
quantity_measured: Injury Rice

compound: COc1cc(OC)nc(Oc2ccccc2C=NOCC=Cc2ccc(Cl)cc2)n1 [Compound No. 28]
experimental_result: 0 (91-100 (No damages))
//
compound: COc1cc(OC)nc(Oc2ccccc2C=NOCc2ccccc2)n1 [Compound No. 15]
experimental_result: 1 (71-90 (Slight damages))
//
compound: CC=CCON=Cc1ccccc1Oc1nc(OC)cc(OC)n1 [compound 8]
experimental_result: 1 (71-90 (Slight damages))
//
compound: COc1cc(OC)nc(Oc2ccccc2C=NOCC=Cc2ccc(Cl)cc2Cl)n1 [compound 30]
experimental_result: 0 (91-100 (No damages))
//
compound: CCc1ccc(C=CCON=Cc2ccccc2Oc2nc(OC)cc(OC)n2)cc1 [compound 37]
experimental_result: 0 (91-100 (No damages))
//
compound: COc1cc(OC)nc(Oc2ccccc2C=NOCc2ccc(Cl)cc2Cl)n1 [Compound No. 17]
experimental_result: 0 (91-100 (No damages))
//
compound: COc1cc(OC)nc(Oc2ccccc2C=NOCCc2ccccc2)n1 [compound 23]
experimental_result: 0 (91-100 (No damages))
//
compound: COc1cc(OC)nc(Oc2ccccc2C=NOCC=Cc2ccc(Cl)c(Cl)c2)n1 [compound 31]
experimental_result: 0 (91-100 (No damages))
//
compound: COc1cc(OC)nc(Oc2ccccc2C=NOCc2ccccc2Cl)n1 [compound 16]
experimental_result: 0 (91-100 (No damages))

====

Below is a list of entries, each paired with its recorded Injury Cotton value.
Tested on: cotton
test_description: Upland soil application test (Test 2), crop injury
Type: in vivo
condition: 30 g ai/a, soil spray before emergence, 30 days later

compound: COc1cc(OC)nc(Oc2ccccc2C=NOCc2ccc(Cl)c(Cl)c2)n1
Injury Cotton: 0 (91-100 (No damages))
//
compound: COC(=O)c1ccccc1Oc1nc(OC)cc(OC)n1 [A, reference compound]
Injury Cotton: 5 (0-5 (Death))
//
compound: C=C(C)CON=Cc1ccccc1Oc1nc(OC)cc(OC)n1
Injury Cotton: 0 (91-100 (No damages))
//
compound: COc1cc(OC)nc(Oc2ccccc2C=NOCc2cccc3ccccc23)n1
Injury Cotton: 0 (91-100 (No damages))
//
compound: COc1cc(OC)nc(Oc2ccccc2C=NOCCc2ccccc2)n1
Injury Cotton: 0 (91-100 (No damages))

====

Test system: foxtail meadow
test_description: Upland foliar application test (Test 3)
Format: in vivo
condition: 30 g ai/a, foliar spray at 2-3 leaves, 30th day
Listed here are compounds together with their documented Herbicidal effects Foxtail meadow.

compound: COc1cc(OC)nc(Oc2ccccc2C=NOCC=C(C)Cl)n1
Herbicidal effects Foxtail meadow: 4 (6-10 (Severe damages))
--
compound: C=C(C)CON=Cc1ccccc1Oc1nc(OC)cc(OC)n1
Herbicidal effects Foxtail meadow: 5 (0-5 (Death))
--
compound: COc1cc(OC)nc(Oc2ccccc2C=NOCC=Cc2c(F)cccc2F)n1
Herbicidal effects Foxtail meadow: 5 (0-5 (Death))
--
compound: COc1cc(OC)nc(Oc2ccccc2C=NOCC=Cc2ccc(F)cc2)n1
Herbicidal effects Foxtail meadow: 4 (6-10 (Severe damages))
--
compound: COc1cc(OC)nc(Oc2ccccc2C=NOCC=Cc2ccccc2)n1
Herbicidal effects Foxtail meadow: 5 (0-5 (Death))
--
compound: COc1cc(OC)nc(Oc2ccccc2C=NOCC=Cc2ccccc2C)n1
Herbicidal effects Foxtail meadow: 5 (0-5 (Death))
--
compound: COc1cc(OC)nc(Oc2ccccc2C=NOCC#Cc2ccccc2)n1
Herbicidal effects Foxtail meadow: 5 (0-5 (Death))
--
compound: C=C(Cl)CON=Cc1ccccc1Oc1nc(OC)cc(OC)n1
Herbicidal effects Foxtail meadow: 5 (0-5 (Death))
--
compound: COc1cc(OC)nc(Oc2ccccc2C=NOCC=Cc2ccccc2Br)n1
Herbicidal effects Foxtail meadow: 5 (0-5 (Death))
--
compound: COc1cc(OC)nc(Oc2ccccc2C=NOCc2cccc3ccccc23)n1
Herbicidal effects Foxtail meadow: 5 (0-5 (Death))
--
compound: COc1cccc(C=CCON=Cc2ccccc2Oc2nc(OC)cc(OC)n2)c1
Herbicidal effects Foxtail meadow: 4 (6-10 (Severe damages))
--
compound: C=CC(C)ON=Cc1ccccc1Oc1nc(OC)cc(OC)n1 (stereo not drawn)
Herbicidal effects Foxtail meadow: 5 (0-5 (Death))
--
compound: C#CCON=Cc1ccccc1Oc1nc(OC)cc(OC)n1
Herbicidal effects Foxtail meadow: 5 (0-5 (Death))
--
compound: COc1cc(OC)nc(Oc2ccccc2C=NOCC=C(C)C)n1
Herbicidal effects Foxtail meadow: 5 (0-5 (Death))
--
compound: COc1cc(OC)nc(Oc2ccccc2C=NOCC=Cc2ccc(Cl)cc2)n1
Herbicidal effects Foxtail meadow: 5 (0-5 (Death))
--
compound: COc1cc(OC)nc(Oc2ccccc2C=NOCC=Cc2cccc(Cl)c2Cl)n1
Herbicidal effects Foxtail meadow: 4 (6-10 (Severe damages))
--
compound: COc1cc(OC)nc(Oc2ccccc2C=NOCc2cccc(C)c2)n1
Herbicidal effects Foxtail meadow: 5 (0-5 (Death))
--
compound: COc1cc(OC)nc(Oc2ccccc2C=NOCC=Cc2ccc(C)cc2)n1
Herbicidal effects Foxtail meadow: 5 (0-5 (Death))
--
compound: COc1cc(OC)nc(Oc2ccccc2C=NOC2CCCCC2)n1
Herbicidal effects Foxtail meadow: 5 (0-5 (Death))
--
compound: COc1cc(OC)nc(Oc2ccccc2C=NOCC=Cc2cccc(C)c2)n1
Herbicidal effects Foxtail meadow: 5 (0-5 (Death))
--
compound: CCCC=CCON=Cc1ccccc1Oc1nc(OC)cc(OC)n1
Herbicidal effects Foxtail meadow: 5 (0-5 (Death))
